- Experimental protocol: Racecadotril and degradation products over time in Acetate and Citrate at pH 3.6, 4.0, 4.5 (untitled table)
- Format: physicochemical
- Condition label: Citrate, pH 4.5, 4 week

>  <Compound>
CC(=O)SCC(Cc1ccccc1)C(=O)NCC(=O)OCc1ccccc1 (racemic) [Racecadotril]

>  <Benz Alcohol>
0.79%

$$$$

---

- Experimental protocol: Racecadotril and degradation products over time in Acetate and Citrate at pH 3.6, 4.0, 4.5 (untitled table)
- Format: physicochemical
- Condition label: Citrate, pH 4.5, 6 week
Measured parameter: Benz Alcohol (%)

>  <Compound>
CC(=O)SCC(Cc1ccccc1)C(=O)NCC(=O)OCc1ccccc1 (racemic)

>  <Measured parameter>
Benz Alcohol

>  <Measurement>
1.14

$$$$

---

- Experimental protocol: Racecadotril and degradation products over time in Acetate and Citrate at pH 3.6, 4.0, 4.5 (untitled table)
- Type: physicochemical
- Condition label: Acetate, pH 3.6, 2 week

>  <Compound>
CC(=O)SCC(Cc1ccccc1)C(=O)NCC(=O)OCc1ccccc1 (racemic)

>  <Thiorphan>
0.11%

$$$$

---

- Experimental protocol: Racecadotril and degradation products over time in Acetate and Citrate at pH 3.6, 4.0, 4.5 (untitled table)
- Assay type: physicochemical
- Condition label: Acetate, pH 4.0, 8 week

>  <Molecule>
CC(=O)SCC(Cc1ccccc1)C(=O)NCC(=O)OCc1ccccc1 (racemic) [Racecadotril]

>  <Thiorphan / %>
1.19

$$$$

---

- Experimental protocol: Racecadotril and degradation products over time in Acetate and Citrate at pH 3.6, 4.0, 4.5 (untitled table)
- Type: physicochemical
- Condition label: Acetate, pH 3.6, 8 week

>  <Compound>
CC(=O)SCC(Cc1ccccc1)C(=O)NCC(=O)OCc1ccccc1 (racemic)

>  <Benz Alcohol (%)>
5.78

$$$$

---

- Experimental protocol: Racecadotril and degradation products over time in Acetate and Citrate at pH 3.6, 4.0, 4.5 (untitled table)
- Type: physicochemical
- Condition label: Citrate, pH 4.0, 6 week
- Protocol: • 1. Pipet 1 mL of Racecadotril solution into a 100 mL volumetric flask (V.F.) • 2. Dilute to volume with the same buffer used in the solution preparation. • 3. […] Parameters may be modified to optimize chromatography. • The assay of Racecadotril is determined by using the external standard injected. The degradation products levels are determined by % peak area relative to the Racecadotril peak. [table] […]
Measured parameter: Thiorphan

>  <Compound>
CC(=O)SCC(Cc1ccccc1)C(=O)NCC(=O)OCc1ccccc1 (racemic) [Racecadotril]

>  <Measurement>
0.85%

$$$$

---

- Experimental protocol: Racecadotril and degradation products over time in Acetate and Citrate at pH 3.6, 4.0, 4.5 (untitled table)
- Assay type: physicochemical
- Condition label: Acetate, pH 4.5, 8 week
Measured parameter: Benz Alcohol (%)

>  <Compound>
CC(=O)SCC(Cc1ccccc1)C(=O)NCC(=O)OCc1ccccc1 (racemic)

>  <Measurement>
1.51

$$$$

---

- Experimental protocol: Racecadotril and degradation products over time in Acetate and Citrate at pH 3.6, 4.0, 4.5 (untitled table)
- Assay type: physicochemical
- Condition label: Citrate, pH 4.5, 2 week
Measured parameter: Benz Alcohol

>  <Molecule>
CC(=O)SCC(Cc1ccccc1)C(=O)NCC(=O)OCc1ccccc1 (racemic) [Racecadotril]

>  <Measured parameter>
Benz Alcohol

>  <Measurement>
0.4%

$$$$

---

- Experimental protocol: Racecadotril and degradation products over time in Acetate and Citrate at pH 3.6, 4.0, 4.5 (untitled table)
- Format: physicochemical
- Condition label: Acetate, pH 3.6, 1 week
Measured parameter: Thiorphan (%)

>  <Compound>
CC(=O)SCC(Cc1ccccc1)C(=O)NCC(=O)OCc1ccccc1 (racemic)

>  <Measurement>
0

$$$$

---

- Experimental protocol: Racecadotril and degradation products over time in Acetate and Citrate at pH 3.6, 4.0, 4.5 (untitled table)
- Assay type: physicochemical
- Condition label: Acetate, pH 4.0, 3 week

>  <Compound>
CC(=O)SCC(Cc1ccccc1)C(=O)NCC(=O)OCc1ccccc1 (racemic) [Racecadotril]

>  <Readout unit>
%

>  <Thiorphan>
0.19

$$$$

---

- Experimental protocol: Racecadotril and degradation products over time in Acetate and Citrate at pH 3.6, 4.0, 4.5 (untitled table)
- Type: physicochemical
- Condition label: Citrate, pH 4.0, 2 week
Measured parameter: Benz Alcohol (%)

>  <Molecule>
CC(=O)SCC(Cc1ccccc1)C(=O)NCC(=O)OCc1ccccc1 (racemic)

>  <Measured parameter>
Benz Alcohol

>  <Measurement>
1.41

$$$$

---

- Experimental protocol: Racecadotril and degradation products over time in Acetate and Citrate at pH 3.6, 4.0, 4.5 (untitled table)
- Format: physicochemical
- Condition label: Acetate, pH 4.0, 4 week
- Procedure: • 1. Pipet 1 mL of Racecadotril solution into a 100 mL volumetric flask (V.F.) • 2. Dilute to volume with the same buffer used in the solution preparation. • 3. […] Parameters may be modified to optimize chromatography. • The assay of Racecadotril is determined by using the external standard injected. The degradation products levels are determined by % peak area relative to the Racecadotril peak. [table] […]
Measured parameter: Benz Alcohol (%)

>  <Molecule>
CC(=O)SCC(Cc1ccccc1)C(=O)NCC(=O)OCc1ccccc1 (racemic)

>  <Measured parameter>
Benz Alcohol

>  <Readout unit>
%

>  <Measurement>
2.84

$$$$

---

- Experimental protocol: Racecadotril and degradation products over time in Acetate and Citrate at pH 3.6, 4.0, 4.5 (untitled table)
- Type: physicochemical
- Condition label: Acetate, pH 3.6, 6 week
Measured parameter: Benz Alcohol (%)

>  <Molecule>
CC(=O)SCC(Cc1ccccc1)C(=O)NCC(=O)OCc1ccccc1 (racemic) [Racecadotril]

>  <Measured parameter>
Benz Alcohol

>  <Measurement>
4.33

$$$$

---

- Experimental protocol: Racecadotril and degradation products over time in Acetate and Citrate at pH 3.6, 4.0, 4.5 (untitled table)
- Format: physicochemical
- Condition label: Citrate, pH 3.6, 6 week
Measured parameter: Thiorphan (%)

>  <Molecule>
CC(=O)SCC(Cc1ccccc1)C(=O)NCC(=O)OCc1ccccc1 (racemic) [Racecadotril]

>  <Measured parameter>
Thiorphan

>  <Readout unit>
%

>  <Measurement>
1.11

$$$$

---

- Experimental protocol: Racecadotril and degradation products over time in Acetate and Citrate at pH 3.6, 4.0, 4.5 (untitled table)
- Type: physicochemical
- Condition label: Acetate, pH 4.5, 2 week
Measured parameter: Thiorphan (%)

>  <Molecule>
CC(=O)SCC(Cc1ccccc1)C(=O)NCC(=O)OCc1ccccc1 (racemic)

>  <Readout unit>
%

>  <Measurement>
0.04

$$$$

---

- Experimental protocol: Racecadotril and degradation products over time in Acetate and Citrate at pH 3.6, 4.0, 4.5 (untitled table)
- Format: physicochemical
- Condition label: Citrate, pH 3.6, 8 week
Measured parameter: Thiorphan (%)

>  <Compound>
CC(=O)SCC(Cc1ccccc1)C(=O)NCC(=O)OCc1ccccc1 (racemic) [Racecadotril]

>  <Readout unit>
%

>  <Measurement>
1.8

$$$$

---

- Experimental protocol: Racecadotril and degradation products over time in Acetate and Citrate at pH 3.6, 4.0, 4.5 (untitled table)
- Type: physicochemical
- Condition label: Citrate, pH 4.5, 3 week
Measured parameter: Benz Alcohol

>  <Compound>
CC(=O)SCC(Cc1ccccc1)C(=O)NCC(=O)OCc1ccccc1 (racemic)

>  <Measurement>
0.59%

$$$$

---

- Experimental protocol: Racecadotril and degradation products over time in Acetate and Citrate at pH 3.6, 4.0, 4.5 (untitled table)
- Assay type: physicochemical
- Condition label: Acetate, pH 3.6, 4 week
Measured parameter: Benz Alcohol

>  <Compound>
CC(=O)SCC(Cc1ccccc1)C(=O)NCC(=O)OCc1ccccc1 (racemic) [Racecadotril]

>  <Measurement>
2.84%

$$$$

---

- Experimental protocol: Racecadotril and degradation products over time in Acetate and Citrate at pH 3.6, 4.0, 4.5 (untitled table)
- Assay type: physicochemical
- Condition label: Citrate, pH 3.6, 1 week
Measured parameter: Thiorphan (%)

>  <Compound>
CC(=O)SCC(Cc1ccccc1)C(=O)NCC(=O)OCc1ccccc1 (racemic)

>  <Measured parameter>
Thiorphan

>  <Readout unit>
%

>  <Measurement>
0

$$$$

---

- Experimental protocol: Racecadotril and degradation products over time in Acetate and Citrate at pH 3.6, 4.0, 4.5 (untitled table)
- Format: physicochemical
- Condition label: Acetate, pH 4.0, 1 week
Measured parameter: Benz Alcohol (%)

>  <Compound>
CC(=O)SCC(Cc1ccccc1)C(=O)NCC(=O)OCc1ccccc1 (racemic)

>  <Measurement>
0.7

$$$$

---

- Experimental protocol: Racecadotril and degradation products over time in Acetate and Citrate at pH 3.6, 4.0, 4.5 (untitled table)
- Assay type: physicochemical
- Condition label: Acetate, pH 4.5, 6 week

>  <Compound>
CC(=O)SCC(Cc1ccccc1)C(=O)NCC(=O)OCc1ccccc1 (racemic)

>  <Benz Alcohol / %>
1.14

$$$$

---

- Experimental protocol: Racecadotril and degradation products over time in Acetate and Citrate at pH 3.6, 4.0, 4.5 (untitled table)
- Assay type: physicochemical
- Condition label: Citrate, pH 4.0, 8 week

>  <Compound>
CC(=O)SCC(Cc1ccccc1)C(=O)NCC(=O)OCc1ccccc1 (racemic) [Racecadotril]

>  <Thiorphan / %>
1.42

$$$$

src = patent US20140271831A1
